System Under Test: human α1G T-type channels (Homo sapiens, UniProt O43497)
Procedure Summary: T-type calcium channel block, whole cell patch clamp, α1G
Measurement Context: HEK cells stably expressing human α1G; mainly non-inactivated protocol; values above 10,000 nM represented as 10000
pIC50: −log10 of the molar value.
Property: pIC50

[[record]]
substance_smiles = "O=C(N[C@H]1CC[C@](F)(S(=O)(=O)c2cccc(OC(F)(F)F)c2)CC1)c1ccc(F)c(Cl)c1"
result_modifier = "="
observed_result = 5.37

[[record]]
substance_smiles = "O=C(N[C@H]1CC[C@H](CS(=O)(=O)c2cccc(C(F)(F)F)c2)CC1)c1ccc(F)c(C(F)(F)F)c1"
result_modifier = "<"
observed_result = 5.00

[[record]]
substance_smiles = "CN(CCC(C)(C)S(=O)(=O)c1cccc(C(F)(F)F)c1)CC(=O)NC(C)(C)C"
result_modifier = "="
observed_result = 6.21

[[record]]
substance_smiles = "CC(C)(CCNC(=O)c1cc(C(F)(F)F)nc(S(C)(=O)=O)c1)S(=O)(=O)c1cccc(C(F)(F)F)c1"
result_modifier = "="
observed_result = 6.62

[[record]]
substance_smiles = "O=C(CNC[C@H]1CC[C@@H](S(=O)(=O)c2cccc(C(F)(F)F)c2)CC1)NC1CCCCC1"
result_modifier = "="
observed_result = 5.28

[[record]]
substance_smiles = "O=C(Nc1ccc(Oc2ccc(F)c(Cl)c2)nc1)[C@H]1C[C@H](S(=O)(=O)c2cccc(C(F)(F)F)c2)C1"
result_modifier = "="
observed_result = 5.90

[[record]]
substance_smiles = "CS(=O)(=O)c1cc(Cl)ccc1C(=O)NC[C@H]1C[C@H](S(=O)(=O)c2cccc(C(F)(F)F)c2)C1"
result_modifier = "="
observed_result = 6.02


###

System Under Test: Human Cav 2.2 channels (Homo sapiens, UniProt Q00975)
Sequence (Q00975 whole entry): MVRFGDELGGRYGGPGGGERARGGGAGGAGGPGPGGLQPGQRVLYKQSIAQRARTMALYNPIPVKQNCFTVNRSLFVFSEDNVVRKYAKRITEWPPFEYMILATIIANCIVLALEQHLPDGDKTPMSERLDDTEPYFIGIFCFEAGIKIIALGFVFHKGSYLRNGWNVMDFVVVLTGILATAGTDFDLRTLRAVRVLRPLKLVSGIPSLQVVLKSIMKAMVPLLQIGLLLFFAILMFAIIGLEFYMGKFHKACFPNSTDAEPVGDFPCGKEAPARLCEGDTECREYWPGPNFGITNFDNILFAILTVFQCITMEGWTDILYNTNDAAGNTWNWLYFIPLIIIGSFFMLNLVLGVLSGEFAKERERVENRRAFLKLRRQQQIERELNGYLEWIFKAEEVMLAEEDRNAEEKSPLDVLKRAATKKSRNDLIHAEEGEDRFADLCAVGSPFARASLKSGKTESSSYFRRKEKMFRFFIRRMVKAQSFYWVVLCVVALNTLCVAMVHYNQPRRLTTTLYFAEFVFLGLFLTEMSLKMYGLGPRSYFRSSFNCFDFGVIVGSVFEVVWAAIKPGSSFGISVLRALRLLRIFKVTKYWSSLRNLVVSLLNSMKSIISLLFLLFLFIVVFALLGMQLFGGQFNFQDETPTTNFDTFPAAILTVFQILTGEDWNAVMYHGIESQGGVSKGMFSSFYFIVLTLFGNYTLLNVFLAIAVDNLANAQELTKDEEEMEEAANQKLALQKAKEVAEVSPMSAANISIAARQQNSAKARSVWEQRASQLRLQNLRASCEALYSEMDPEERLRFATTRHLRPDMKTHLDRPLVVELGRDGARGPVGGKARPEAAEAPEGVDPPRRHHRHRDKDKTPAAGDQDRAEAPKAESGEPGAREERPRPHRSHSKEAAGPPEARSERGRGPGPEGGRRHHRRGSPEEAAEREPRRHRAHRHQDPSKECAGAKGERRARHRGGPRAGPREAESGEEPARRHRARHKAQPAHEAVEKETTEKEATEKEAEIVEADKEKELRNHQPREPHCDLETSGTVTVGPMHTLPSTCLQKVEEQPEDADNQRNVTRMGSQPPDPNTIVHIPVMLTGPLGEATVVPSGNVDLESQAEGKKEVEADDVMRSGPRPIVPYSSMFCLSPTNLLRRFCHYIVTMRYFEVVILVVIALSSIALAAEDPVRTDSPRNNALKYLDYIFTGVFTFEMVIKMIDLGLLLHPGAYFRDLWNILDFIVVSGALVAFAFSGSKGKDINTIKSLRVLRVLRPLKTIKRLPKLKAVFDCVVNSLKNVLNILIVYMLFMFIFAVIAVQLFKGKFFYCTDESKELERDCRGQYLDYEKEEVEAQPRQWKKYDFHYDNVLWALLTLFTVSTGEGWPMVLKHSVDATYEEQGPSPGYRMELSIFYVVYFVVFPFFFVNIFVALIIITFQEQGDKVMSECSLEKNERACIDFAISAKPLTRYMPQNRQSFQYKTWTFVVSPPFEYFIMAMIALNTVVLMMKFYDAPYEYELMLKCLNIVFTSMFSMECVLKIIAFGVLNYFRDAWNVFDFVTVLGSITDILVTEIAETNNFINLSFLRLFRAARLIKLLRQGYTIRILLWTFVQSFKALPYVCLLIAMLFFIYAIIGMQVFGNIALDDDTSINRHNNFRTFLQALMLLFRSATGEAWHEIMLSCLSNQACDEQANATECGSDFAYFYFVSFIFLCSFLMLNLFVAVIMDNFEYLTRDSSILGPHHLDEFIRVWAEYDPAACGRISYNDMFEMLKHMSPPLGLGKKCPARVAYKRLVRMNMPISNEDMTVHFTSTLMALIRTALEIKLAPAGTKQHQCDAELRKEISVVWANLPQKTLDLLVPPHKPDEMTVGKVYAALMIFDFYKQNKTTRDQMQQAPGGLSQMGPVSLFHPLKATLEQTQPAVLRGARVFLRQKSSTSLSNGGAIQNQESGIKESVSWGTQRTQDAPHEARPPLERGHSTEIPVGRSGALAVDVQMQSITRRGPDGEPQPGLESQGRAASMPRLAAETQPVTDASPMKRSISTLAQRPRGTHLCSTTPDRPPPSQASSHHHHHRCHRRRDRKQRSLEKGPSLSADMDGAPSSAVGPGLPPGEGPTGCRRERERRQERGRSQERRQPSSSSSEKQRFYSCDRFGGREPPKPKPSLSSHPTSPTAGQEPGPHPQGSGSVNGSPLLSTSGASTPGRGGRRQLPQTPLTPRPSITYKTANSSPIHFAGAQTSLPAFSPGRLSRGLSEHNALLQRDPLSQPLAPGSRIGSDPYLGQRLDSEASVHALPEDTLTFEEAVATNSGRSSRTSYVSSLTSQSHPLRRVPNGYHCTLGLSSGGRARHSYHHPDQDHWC
Sequence (P54289 25-1103 partner): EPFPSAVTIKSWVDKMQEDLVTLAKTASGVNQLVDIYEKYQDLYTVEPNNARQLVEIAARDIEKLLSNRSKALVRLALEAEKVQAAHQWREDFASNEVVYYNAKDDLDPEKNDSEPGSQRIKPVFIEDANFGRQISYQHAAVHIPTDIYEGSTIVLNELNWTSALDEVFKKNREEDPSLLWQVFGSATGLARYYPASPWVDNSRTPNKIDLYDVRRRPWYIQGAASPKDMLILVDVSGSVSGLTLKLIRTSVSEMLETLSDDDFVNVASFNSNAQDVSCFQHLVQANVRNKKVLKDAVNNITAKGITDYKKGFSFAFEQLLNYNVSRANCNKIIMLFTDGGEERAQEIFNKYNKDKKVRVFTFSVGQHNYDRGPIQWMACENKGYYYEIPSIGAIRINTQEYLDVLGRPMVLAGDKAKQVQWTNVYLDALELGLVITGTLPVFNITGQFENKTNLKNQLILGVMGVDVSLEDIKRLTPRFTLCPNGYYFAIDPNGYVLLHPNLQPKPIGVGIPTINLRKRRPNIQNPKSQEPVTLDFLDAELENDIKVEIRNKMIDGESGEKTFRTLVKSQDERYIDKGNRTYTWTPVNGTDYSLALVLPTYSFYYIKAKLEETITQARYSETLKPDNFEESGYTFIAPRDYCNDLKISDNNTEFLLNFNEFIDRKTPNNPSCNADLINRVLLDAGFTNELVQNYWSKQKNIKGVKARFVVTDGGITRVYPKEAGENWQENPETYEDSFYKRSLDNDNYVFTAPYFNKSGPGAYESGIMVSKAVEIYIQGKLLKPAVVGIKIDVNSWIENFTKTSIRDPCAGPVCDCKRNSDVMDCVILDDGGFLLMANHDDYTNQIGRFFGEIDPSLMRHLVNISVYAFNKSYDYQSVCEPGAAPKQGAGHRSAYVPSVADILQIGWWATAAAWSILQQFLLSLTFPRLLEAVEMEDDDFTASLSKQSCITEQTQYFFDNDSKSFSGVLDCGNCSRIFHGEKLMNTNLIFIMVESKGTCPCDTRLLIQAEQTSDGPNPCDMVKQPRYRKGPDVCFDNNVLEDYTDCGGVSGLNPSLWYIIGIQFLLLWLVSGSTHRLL
Sequence (P54284 whole entry partner): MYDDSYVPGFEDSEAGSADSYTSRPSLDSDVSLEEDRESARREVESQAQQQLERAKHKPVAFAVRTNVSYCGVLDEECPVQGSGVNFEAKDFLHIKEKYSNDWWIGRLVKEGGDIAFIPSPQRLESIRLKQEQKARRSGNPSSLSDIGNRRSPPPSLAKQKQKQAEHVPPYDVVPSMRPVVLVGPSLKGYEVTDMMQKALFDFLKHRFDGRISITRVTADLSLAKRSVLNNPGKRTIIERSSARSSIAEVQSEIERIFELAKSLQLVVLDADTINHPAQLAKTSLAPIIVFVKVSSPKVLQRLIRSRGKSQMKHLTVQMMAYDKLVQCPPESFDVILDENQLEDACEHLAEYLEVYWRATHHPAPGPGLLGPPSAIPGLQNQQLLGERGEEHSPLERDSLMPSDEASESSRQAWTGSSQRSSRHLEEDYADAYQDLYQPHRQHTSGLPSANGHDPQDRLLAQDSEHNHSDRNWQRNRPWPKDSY
Procedure Summary: Fluorescent assay for CaV2.2 channels using potassium depolarization (VIPR/FLIPR)
Type: cell-based
Measurement Context: FLIPR data; closed state; read-out: CAv2.2 IC50 Closed
pIC50: −log10 of the molar value.
Property: pIC50

[[record]]
substance_smiles = "CC(C)(C[C@H]1C[C@@H](NC(=O)c2cnc(C(F)(F)F)nc2)C1)S(=O)(=O)c1cccc(C(F)(F)F)c1"
system_under_test = "Human Cav 2.2 channels (Homo sapiens, UniProt Q00975)"
property = "pIC50"
observed_result = 5.47

[[record]]
substance_smiles = "CC(C)(C[C@H]1C[C@@H](NC(=O)c2ccc(OCC(F)(F)F)nc2)C1)S(=O)(=O)c1cccc(C(F)(F)F)c1"
system_under_test = "Human Cav 2.2 channels (Homo sapiens, UniProt Q00975)"
property = "pIC50"
observed_result = 6.07

[[record]]
substance_smiles = "NC1(CC(=O)NC[C@H]2C[C@H](S(=O)(=O)c3cc(F)cc(C(F)(F)F)c3)C2)CCCCC1"
system_under_test = "Human Cav 2.2 channels (Homo sapiens, UniProt Q00975)"
property = "pIC50"
observed_result = 5.12

[[record]]
substance_smiles = "O=C(NC[C@H]1C[C@H](S(=O)(=O)c2cc(F)cc(C(F)(F)F)c2)C1)c1ccc(OCC(F)(F)F)nc1"
system_under_test = "Human Cav 2.2 channels (Homo sapiens, UniProt Q00975)"
property = "pIC50"
observed_result = 5.40

[[record]]
substance_smiles = "CC(C)(C[C@H]1C[C@H](NC(=O)c2ccc(Cl)cc2S(C)(=O)=O)C1)S(=O)(=O)c1cccc(C(F)(F)F)c1"
system_under_test = "Human Cav 2.2 channels (Homo sapiens, UniProt Q00975)"
property = "pIC50"
observed_result = 5.33

[[record]]
substance_smiles = "CC(C)([C@H]1C[C@@H](NC(=O)c2ncc(C(F)(F)F)cc2S(C)(=O)=O)C1)S(=O)(=O)c1cccc(OC(F)(F)F)c1"
system_under_test = "Human Cav 2.2 channels (Homo sapiens, UniProt Q00975)"
property = "pIC50"
observed_result = 5.00

[[record]]
substance_smiles = "CC(C)(C[C@H]1C[C@H](NC(=O)c2ccc(Cl)cn2)C1)S(=O)(=O)c1cccc(C(F)(F)F)c1"
system_under_test = "Human Cav 2.2 channels (Homo sapiens, UniProt Q00975)"
property = "pIC50"
observed_result = 6.08

